# Bliss excess annotations
- System: HO-1-u-1 (Oral Cavity Carcinoma);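 also: after 72 h of two-drug dosing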
- measurement.description: Bliss excess, mean over the matrix (fraction); higher = more synergy
Format: numeric value only, no unit, no commentary.

COc1nnc2ccc(N3CCC(c4ccc(OCCN5CCN(C)C(=O)[C@H]5C)cc4)CC3)nn12 [AZD5153] + CC1(C)CCC(CN2CCN(c3ccc(C(=O)NS(=O)(=O)c4ccc(NCC5CCOCC5)c([N+](=O)[O-])c4)c(Oc4cnc5[nH]ccc5c4)c3)CC2)=C(c2ccc(Cl)cc2)C1 [Venetoclax] (first compound max 1 µM, 7x7, partner max 1 µM) | -0.0352

Exercise: Fill in the blank: the reported Bliss excess of Cc1cc2ncnn2cc1Nc1ncc2c(n1)n(C1CCOCC1)c(=O)n2C [AZD7648] + CN(C)CCCOc1ccc(-c2ccc3ncc4c(c3c2)n(C2CCOCC2)c(=O)n4C)cn1 [AZD0156] (first compound max 10 µM, 7x7, partner max 1 µM) is ____.
Solution: -0.0542

Exercise: Fill in the blank: the reported Bliss excess of CC1(C)CCC(CN2CCN(c3ccc(C(=O)NS(=O)(=O)c4ccc(NCC5CCOCC5)c([N+](=O)[O-])c4)c(Oc4cnc5[nH]ccc5c4)c3)CC2)=C(c2ccc(Cl)cc2)C1 [Venetoclax] + CS(=O)(=O)CCNCc1ccc(-c2ccc3ncnc(Nc4ccc(OCc5cccc(F)c5)c(Cl)c4)c3c2)o1 [Lapatinib] (first compound max 1 µM, 7x7, partner max 10 µM) is ____.
Solution: 0.0094
